Tested on: ApoB secretion, HepG2 cells
method description: Quantification of the secretion of ApoB (HepG2 cells, immunoprecipitation, scintillation counting)
Assay type: cell-based
protocol conditions: Homo sapiens, HepG2, 24 h, 24 hours of incubation
Description: C.1. Quantification of the Secretion of ApoB HepG2 cells were cultured in 24-well plates in Minimal Essential Medium Rega 3 containing 10% fetal calf serum. […] At 70% confluency, the medium was changed and the test compound or carrier (dimethylsulfoxide, 0.4% final concentration) was added. […] Radioactivity in the pellet was quantified by liquid scintillation counting. […]
Criterion: IC50 strictly under 100 nM. Met: y. Not met: n.

compound: CC(C)NC(=O)C(c1ccccc1)C1CCN(c2ccc(NC(=O)c3ccccc3Cc3ccccc3)cc2)CC1 (stereo not shown) [Co. No. 28]
group label: n

compound: O=C(Nc1ccc(C2CCN(C(C(=O)OCCCc3ccccc3)c3ccccc3)CC2)cc1)c1ccccc1-c1ccc(C(F)(F)F)cc1 (stereo not shown) [Co. No. 221]
group label: y

compound: CC(C)CNC(=O)C(c1ccccc1)N1CCN(c2ccc(NC(=O)c3ccccc3-c3ccc(C(F)(F)F)cc3)cc2)CC1 (stereo not shown) [Co. No. 58]
group label: y

compound: C=CCNC(=O)C(c1ccccc1)N1CCN(c2ccc(NC(=O)c3ccccc3-c3ccc(C(F)(F)F)cc3)cc2)CC1 (stereo not shown) [Co. No. 57]
group label: y

compound: CCC(CC)OC(=O)C(c1ccccc1)N1CCC(c2ccc(NC(=O)c3ccccc3-c3ccc(C(F)(F)F)cc3)cc2)CC1 (stereo not shown) [Co. No. 224]
group label: n

compound: COC(=O)C(c1ccccc1Cl)N1CCN(c2ccc(NC(=O)c3ccccc3-c3ccc(C(F)(F)F)cc3)cc2)CC1 (stereo not shown) [Co. No. 258]
group label: n

compound: O=C(Nc1ccc(C2CCN(C(C(=O)NC3CC3)c3ccccc3)CC2)cc1)c1ccccc1-c1ccc(C(F)(F)F)cc1 (stereo not shown) [Co. No. 72]
group label: y

compound: CCCOC(=O)C(c1ccccc1)N1CCCN(c2ccc(NC(=O)c3ccccc3-c3ccc(C(F)(F)F)cc3)cc2)CC1 (stereo not shown) [Co. No. 121]
group label: n

compound: CCNC(=O)C(c1ccccc1)C1CCN(c2ccc(NC(=O)c3ccccc3-c3ccc(F)cc3)cc2)CC1 (stereo not shown) [Co. No. 92]
group label: y

compound: CCOC(=O)C(c1ccccc1)C1CCN(c2ccc(NC(=O)c3ccccc3-c3ccc(C(F)(F)F)cc3)cc2)CC1 (stereo not shown) [Co. No. 243]
group label: y

compound: C#CCOC(=O)C(c1ccccc1)C1CCN(c2ccc(NC(=O)c3ccccc3-c3ccc(C(F)(F)F)cc3)cc2)CC1 (stereo not shown) [Co. No. 248]
group label: y

compound: CCCCNC(=O)C(c1ccccc1)N1CCC(c2ccc(NC(=O)c3ccccc3-c3ccc(C(F)(F)F)cc3)cc2)CC1 (stereo not shown) [Co. No. 73]
group label: y

compound: O=C(Nc1ccc(C2=CCN(C(C(=O)OCc3ccccc3)c3ccccc3)CC2)cc1)c1ccccc1-c1ccc(C(F)(F)F)cc1 (stereo not shown) [Co. No. 168]
group label: n

* * *

// reported pIC50 for each item listed
Test system: ApoB secretion, HepG2 cells
method description: Quantification of the secretion of ApoB (HepG2 cells, immunoprecipitation, scintillation counting)
Assay type: cell-based
protocol conditions: Homo sapiens, HepG2, 24 h, 24 hours of incubation
pIC50: −log10 of the molar value.

compound: COC(=O)C(c1ccccc1)C1CCN(c2ccc(NC(=O)c3cccc(C)c3-c3ccc(C(C)C)cc3)cc2)CC1 (stereo not shown)
cmp: >
pIC50: 7.52

compound: COC(=O)C(c1cccc(Cl)c1)N1CCN(c2ccc(NC(=O)c3ccccc3-c3ccc(C(F)(F)F)cc3)cc2)CC1 (stereo not shown)
cmp: >
pIC50: 7.52

compound: CCc1ccc(-c2c(C)cccc2C(=O)Nc2ccc(N3CCC(C(C(=O)OC)c4ccccc4)CC3)cc2)cc1 (stereo not shown)
cmp: >
pIC50: 7.52

compound: O=C(Nc1ccc(N2CCC(C(C(=O)Nc3ccccc3)c3ccccc3)CC2)cc1)c1ccccc1OCc1ccccc1 (stereo not shown)
cmp: ≤
pIC50: 5.52

compound: CC(C)CNC(=O)C(c1ccccc1)N1CCC(c2ccc(NC(=O)c3ccccc3-c3ccc(C(F)(F)F)cc3)cc2)CC1 (stereo not shown)
cmp: ≥
pIC50: 7.52

compound: CCCNC(=O)C(c1ccccc1)C1CCN(c2ccc(NC(=O)c3ccccc3-c3ccccc3C)cc2)CC1 (stereo not shown)
cmp: =
pIC50: 6.38

compound: COC(=O)C(c1ccccc1)N1CCN(c2ccc(NC(=O)c3ccc(C)cc3-c3ccc(C(F)(F)F)cc3)cc2)CC1 (stereo not shown)
cmp: =
pIC50: 8.51

compound: O=C(Nc1ccc(N2CCN(C(C(=O)Oc3ccccc3)c3ccccc3)CC2)cc1)c1ccccc1-c1ccccc1 (stereo not shown)
cmp: =
pIC50: 6.76

compound: CCNC(=O)C(c1ccccc1)N1CCC(c2ccc(NC(=O)c3ccccc3-c3ccc(C(F)(F)F)cc3)cc2)CC1 (stereo not shown)
cmp: =
pIC50: 8.05

compound: COc1ccccc1-c1ccccc1C(=O)Nc1ccc(N2CCC(C(C(=O)NCc3ccccc3)c3ccccc3)CC2)cc1 (stereo not shown)
cmp: =
pIC50: 6.68

compound: O=C(Nc1ccc(N2CCN(C(C(=O)NCc3ccccc3)c3ccccc3)CC2)cc1)c1ccccc1-c1ccc(C(F)(F)F)cc1 (stereo not shown)
cmp: =
pIC50: 8.41

compound: Cc1ccc(-c2ccccc2C(=O)Nc2ccc(N3CCC(C(C(=O)Nc4ccccc4)c4ccccc4)CC3)cc2)cc1 (stereo not shown)
cmp: =
pIC50: 6.92

compound: O=C(Nc1ccc(N2CCC(C(C(=O)Nc3ccccc3)c3ccccc3)CC2)cc1)c1cccc2c1-c1ccccc1C2 (stereo not shown)
cmp: =
pIC50: 5.56

compound: C=CCOC(=O)C(c1ccccc1)N1CCN(c2ccc(NC(=O)c3ccccc3-c3ccc(C(F)(F)F)cc3)cc2)CC1 (stereo not shown)
cmp: =
pIC50: 6.70

compound: O=C(Nc1ccc(N2CCC(C(C(=O)NCc3ccccc3)c3ccccc3)CC2)cc1)c1ccccc1Cc1ccccc1 (stereo not shown)
cmp: =
pIC50: 6.62

compound: O=C(Nc1ccc(N2CCC(C(C(=O)Nc3ccccc3)c3ccccc3)CC2)cc1)c1ccccc1CSc1ccccc1 (stereo not shown)
cmp: =
pIC50: 5.89
